The reported measurements were obtained from PubChem BioAssay.

- Assay details: HepG2 cell viability effects, profiling panel, calcein-AM fluorescence, 48 h, basal (AID 1164); note: test concentration not given here
- Conditions: higher = more signal
# z-score >= -0.07 gives Yes, anything below gives No

- Molecule: "O=C1[C@H]2[C@H]3[C@H](O)[C@H](O)CC(=NOCc4ccccc4)[C@@H]3CC[C@H]2C(=O)N1c1cccc(Oc2ccccc2)c1"
  Category label: "No"
- Molecule: "COc1ccc(OC[C@@H]2CC3[C@@H](c4ccc(Br)cc4)[C@H](C)CC[C@H]3C(=O)O2)cc1 (stereo not given in full)"
  Category label: "Yes"
- Molecule: "CON=C[C@@H](OC)[C@H](C)C=CCC(=O)OC"
  Category label: "Yes"
- Molecule: "O=C1C[C@H](c2ccccc2)[C@H](c2ccc(Br)cc2)O1"
  Category label: "Yes"
- Molecule: "CO[C@@H]1COC(=O)[C@@H]2CCCN2C(=O)[C@@H](C)COC(=O)CCC[C@H]1C"
  Category label: "Yes"

----------
- Assay details: binders of probe aFSTL3 on microarray, primary screen, stem cell growth factor project, biochemical, small-molecule microarray, fluorescence 635/667 (AID 1064);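 note: measures binding of the biotinylated anti-FSTL3 antibody to printed compounds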
- Conditions: higher = more signal

- Molecule: "O=C1[C@H]2[C@H]3[C@H](O)[C@H](O)CC(=NO[C@@H]4O[C@H](CO)[C@@H](O)[C@H](O)[C@H]4O)[C@@H]3CC[C@H]2C(=O)N1C1CCCCC1"
  composite z-score: -0.599
- Molecule: "CCN1C(=O)[C@H]2[C@H]3[C@H](O)[C@H](O)CC(=NNC(=O)OCc4ccccc4)[C@H]3CC[C@H]2C1=O"
  composite z-score: 0.307
- Molecule: "O=C1[C@H]2[C@H]3[C@H](O)[C@H](O)CC(=NO[C@@H]4O[C@H](CO)[C@@H](O)[C@H](O)[C@H]4O)[C@H]3CC[C@H]2C(=O)N1c1ccc(F)cc1F"
  composite z-score: 0.552
- Molecule: "CC(CCN1CCCc2nc(C)c(C)cc21)=NOC[C@@H](O)COCc1ccco1"
  composite z-score: 2.02
- Molecule: "O=C(NN=C1C[C@@H](O)[C@@H](O)[C@@H]2[C@@H]3C(=O)N(c4ccc(F)cc4F)C(=O)[C@@H]3CC[C@H]12)OCc1ccccc1"
  composite z-score: 0.0775
- Molecule: "O=C1C2=CC[C@H]3C(=O)N(c4ccc(F)cc4F)C(=O)[C@H]3[C@H]2[C@H](O)[C@@H]2O[C@H]12"
  composite z-score: -0.598
- Molecule: "O=C1CCCC=C1C(O)c1ccc([N+](=O)[O-])cc1 (stereo not given)"
  composite z-score: -0.396
- Molecule: "CC(CCN1CCCCc2nc(C)c(C)cc21)=NO[C@H](C)c1cn([C@@H]2COC[C@H]2O)nn1"
  composite z-score: -0.565
- Molecule: "CC(C)=CCCC(C)=CCON=C1C[C@@H](O)[C@@H](O)[C@@H]2[C@@H]3C(=O)N(Cc4ccc5c(c4)OCO5)C(=O)[C@@H]3CC[C@H]12"
  composite z-score: -0.386
- Molecule: "Cc1ccc(S(=O)(=O)N[C@@H]2COC(=O)CC=C[C@@H](C)[C@H](NS(=O)(=O)c3ccc(C)cc3)COC(=O)[C@H](C)NC(=O)CC=C[C@H]2C)cc1"
  composite z-score: 0.166
- Molecule: "CON=C(C)CCN1CCc2nc(-c3ccccc3)c(-c3ccccc3)cc2C1"
  composite z-score: -0.262
- Molecule: "CCOC(=O)[C@H](CC(C)C)NC(=O)CCC1CC(OC(=O)NCc2ccc3c(c2)OCO3)CC2(CCCC(COC(=O)NCc3ccccc3)O2)O1 (stereo not given in full)"
  composite z-score: -0.542
- Molecule: "COC(=O)[C@H](C)NC(=O)CCC1CC(OC(=O)NCc2ccc3c(c2)OCO3)CC2(CCCC(COC(=O)NCCC(C)C)O2)O1 (stereo not given in full)"
  composite z-score: -0.312
- Molecule: "CO[C@@H](C1CCCCC1)[C@@H](C)[C@H](OCc1cccc(Br)c1)[C@@H](C)CO"
  composite z-score: -0.284
- Molecule: "COC(=O)[C@H](C)NC(=O)CCC1CC(OC(=O)NCc2cccc3ccccc23)CC2(CCCC(COC(=O)NCCCN3CCCC3=O)O2)O1 (stereo not given in full)"
  composite z-score: -0.669
